B1: Pistol ribozyme (parent)
chain: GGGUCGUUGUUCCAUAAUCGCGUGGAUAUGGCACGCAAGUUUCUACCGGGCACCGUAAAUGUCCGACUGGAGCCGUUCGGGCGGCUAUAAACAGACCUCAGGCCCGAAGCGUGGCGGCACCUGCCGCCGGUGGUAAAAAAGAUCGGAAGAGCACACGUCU

Variants of: B1
protocolDetails: aptazyme ON/OFF ratio, guanine; higher = stronger switching; co-transcriptional cleavage with and without guanine
quantityMeasured: aptazyme ON/OFF ratio
Give bare numbers.

{"variantId": "U8C G9C U10A U11C C12U C13U", "aptazyme ON/OFF ratio": 1.19}
{"variantId": "U7G G9A U11C C12G", "aptazyme ON/OFF ratio": 1.27}
{"variantId": "U7A U8G U10A U11A C12A C13U", "aptazyme ON/OFF ratio": 1.12}

For every record below, what is its aptazyme ON/OFF ratio?
1. G9A U10C U11C C12A
2. U7C U8A G9U U10G U11C C12A C13G
3. U8C G9C U10A U11G C13G

Data returned:
[1.1, 1.16, 1.2]

For every record below, what is its aptazyme ON/OFF ratio?
1. U8C G9C U10C U11G C12A C13G
2. U7G U8G G9C U10C U11C C13U

Data returned:
1: 1.16; 2: 1.07

For every record below, what is its aptazyme ON/OFF ratio?
1. U7A U8A G9U U10C U11A
2. U7C U8A G9U U10C U11C C12U C13G
3. G9A U10C U11A C12U C13A
4. U7A G9U U10C
5. U7G U8A U10A C12G C13U
6. U8A G9U U10A C12U C13A
7. U7A U8C U11G C12G

Data returned:
1.29
1.02
1.35
2.35
1.47
1.25
1.09
